- assayed_target: HLA-A*0301 (Homo sapiens, UniProt P04439)
- Construct: endogenous in cells; host or cells: GM3107
- assay_name: purified HLA class I binding assay, A*0301
- measurement_context: Table IX, HIV A03 super motif peptides; binding value, unit not given
measure: A*0301 binding information

1) FTTPDKKIIQK
0.0002
2) ASCDKCQLK
0.0027
3) KLVDFRELNK
0.5100
4) YLAWVPAIIK
0.0770
5) WMGYELIIPDK
0.0005
6) VASCDKCQLK
0.0004
7) DIQIKELQK
0.0009

----------
- assayed_target: HLA-A*0206 (Homo sapiens, UniProt P04439, D140Y/D185E/D98H/E176V/E277Q/F33Y/G131W/G231S/I119V/I121R/I166T/I218V/L300P/L318F/N151K/N90K/P208A/P217A/Q86G/Q94H/R138H/R169H/T345S)
- assay_name: purified HLA class I binding assay, A*0206
pIC50: −log10 of the molar value.
measure: pIC50

1) CC[C@H](C)[C@H](NC(=O)[C@H](CC(=O)O)NC(=O)[C@@H](NC(=O)[C@H](C)NC(=O)[C@H](CC(N)=O)NC(=O)[C@H](CC(C)C)NC(=O)[C@H](CC(C)C)NC(=O)[C@@H](N)CO)[C@@H](C)O)C(=O)N[C@@H](C)C(=O)N[C@H](C(=O)O)C(C)C [Peptide 1211.09]
7.55
2) CC[C@H](C)[C@H](NC(=O)[C@H](CC(N)=O)NC(=O)[C@@H](NC(=O)[C@@H]1CCCN1C(=O)[C@@H](NC(=O)[C@@H]1CCCN1C(=O)CNC(=O)[C@@H](NC(=O)[C@@H](N)CC(C)C)C(C)C)[C@@H](C)O)C(C)C)C(=O)O [Peptide 1261.09]
5.55
3) CC[C@H](C)[C@H](NC(=O)[C@H](C)N)C(=O)N[C@H](C(=O)N[C@@H](CCCNC(=N)N)C(=O)N[C@H](C(=O)N[C@@H](CC(C)C)C(=O)N[C@@H](CCC(N)=O)C(=O)N[C@@H](CCC(N)=O)C(=O)N[C@@H](CC(C)C)C(=O)O)[C@@H](C)CC)[C@@H](C)CC [Peptide 1261.11]
7.41
4) CC(C)C[C@H](NC(=O)[C@H](CCCCN)NC(=O)[C@H](Cc1ccccc1)NC(=O)[C@H](CS)NC(=O)[C@H](Cc1c[nH]c2ccccc12)NC(=O)CNC(=O)[C@H](Cc1ccccc1)NC(=O)[C@@H](NC(=O)[C@@H](N)CC(C)C)[C@@H](C)O)C(=O)O [Peptide 1261.04]
6.69
5) CC[C@H](C)[C@H](NC(=O)[C@H](Cc1ccccc1)NC(=O)CNC(=O)CNC(=O)[C@@H](NC(=O)CNC(=O)CNC(=O)[C@@H](NC(=O)[C@H](CCSC)NC(=O)[C@@H](N)CCCCN)[C@@H](C)CC)[C@@H](C)CC)C(=O)O [Peptide 1261.17]
6.11
